- Tested Target: T1, recombinant human CTLA4-Fc (Sino Biological, 11159-H03H) (human, UniProt P16410 36-162)
- T1 construct: bought; also called human CTLA4 fused with human FC fragment
- T1 sequence (looked up): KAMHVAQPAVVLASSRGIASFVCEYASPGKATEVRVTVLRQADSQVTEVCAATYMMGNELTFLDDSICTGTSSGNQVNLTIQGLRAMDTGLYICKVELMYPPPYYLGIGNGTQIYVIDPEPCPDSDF
- Assay Summary: ELISA, CTLA4-Fc coated, batch 2
A collection of binders and their measured LogEC50
The answer should be written as a number, with no unit following it.

[
  {
    "Binder": "TY22564 (antibody, IgG1, V domains shown) VH: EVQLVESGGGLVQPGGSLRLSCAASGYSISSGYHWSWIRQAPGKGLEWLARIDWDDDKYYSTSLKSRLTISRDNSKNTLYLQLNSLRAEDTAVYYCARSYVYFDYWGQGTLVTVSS VL: EVGSYYSAYPACDSHYPYCNSAGRSAGGGGSPLGLAGSGGSDIQLTQSPSSLSASVGDRVTITCRASQSVRGRFLAWYQQKPGKAPKLLIYDASNRATGIPSRFSGSGSGTDFTLTISSLQPEDFATYYCQQSSSWPPTFGQGTKVEIKR",
    "LogEC50": -7.41
  }
]

Consider now this further binder.
TY22401 (antibody, V domains shown, peptide fused to the N-terminus of the light chain; also called B13189 (peptide name)) VH: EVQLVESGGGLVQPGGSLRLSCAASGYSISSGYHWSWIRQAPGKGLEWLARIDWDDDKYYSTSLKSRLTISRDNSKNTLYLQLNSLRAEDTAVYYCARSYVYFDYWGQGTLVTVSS VL: EVGSYNFVADSCPDHPYPCSASGRSAGGGGSPLGLAGSGGSDIQLTQSPSSLSASVGDRVTITCRASQSVRGRFLAWYQQKPGKAPKLLIYDASNRATGIPSRFSGSGSGTDFTLTISSLQPEDFATYYCQQSSSWPPTFGQGTKVEIKR has a reported LogEC50 of -7.8
